Consider the following compounds; for each one, report its growth inhibition.
ASSAY METHOD TEXT: NCI Yeast Anticancer Drug Screen. Data for the rad50 strain (AID 155);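 note: 0% = growth of vehicle-only cultures of the same strain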
CONDITION: S. cerevisiae rad50 strain growth inhibition; at 50.0 µM; stronger effect = higher value
The panel holds about 79,000 compounds, 15% with a hit somewhere; the sample as a whole holds those more often.
Write down the numeric answer in % and omit the unit.

Input: Give its growth inhibition value. Item: `O=c1[nH]c2cc3[nH]c(=O)c(=O)[nH]c3cc2[nH]c1=O`
Output: -21.8

Input: Give its growth inhibition value. Item: `COc1ccc(C(=O)/C=C/c2ccc(OCCSCCCCCCCCCCSCCOc3ccc(/C=C/C(=O)c4ccc(OC)cc4)cc3)cc2)cc1`
Output: -35

Input: Give its growth inhibition value. Item: `NC(=S)N/N=C/c1ccc(F)cn1`
Output: 22.9

Input: Give its growth inhibition value. Item: `C[N+](=C\c1ccccc1O)/N=C\c1ccccc1O`
Output: 7.15
